B1: BTBD10 (parent)
chain: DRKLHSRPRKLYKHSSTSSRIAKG

variants of: B1; assay: protein stability index of a GFP-peptide fusion (GPS, HEK-293T) (PSI 1-6); higher = more stable; conditions: c terminus: a fixed tail appended;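 note: lentivirally expressed fusions sorted by FACS into six bins by GFP to DsRed ratio, PSI derived from sequencing read proportions per bin multiplied by bin number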
Label MET when protein stability index is at or above 4; anything below gets NOT MET.

Check out these entries, answers already filled in.
seq string: DRKLHSRPRKLYKHSSTNSRIAKG [S18N]
discrete label: MET
--
seq string: DRKLHSRPRKLYKHSSTSSRYAKG [I21Y]
discrete label: MET
--
seq string: DRKLHSRPRALYKHSSTSSRIAKG [K10A]
discrete label: NOT MET
--
seq string: DRKLHSRPRKLYKHSSKSSRIAKG [T17K]
discrete label: MET
--
seq string: DRKLHSRPRKLYKHSSTSSRIAKY [G24Y]
discrete label: NOT MET
--
seq string: DSKLHSRPRKLYKHSSTSSRIAKG [R2S]
discrete label: MET

# ---- query variant ----
API: above_or_equal(metric=protein stability index, cutoff=4) for item DRWLHSRPRKLYKHSSTSSRIAKG [K3W]
NOT MET
